Biological target: UniProt P15144
Sequence (P15144 whole entry, species assumed): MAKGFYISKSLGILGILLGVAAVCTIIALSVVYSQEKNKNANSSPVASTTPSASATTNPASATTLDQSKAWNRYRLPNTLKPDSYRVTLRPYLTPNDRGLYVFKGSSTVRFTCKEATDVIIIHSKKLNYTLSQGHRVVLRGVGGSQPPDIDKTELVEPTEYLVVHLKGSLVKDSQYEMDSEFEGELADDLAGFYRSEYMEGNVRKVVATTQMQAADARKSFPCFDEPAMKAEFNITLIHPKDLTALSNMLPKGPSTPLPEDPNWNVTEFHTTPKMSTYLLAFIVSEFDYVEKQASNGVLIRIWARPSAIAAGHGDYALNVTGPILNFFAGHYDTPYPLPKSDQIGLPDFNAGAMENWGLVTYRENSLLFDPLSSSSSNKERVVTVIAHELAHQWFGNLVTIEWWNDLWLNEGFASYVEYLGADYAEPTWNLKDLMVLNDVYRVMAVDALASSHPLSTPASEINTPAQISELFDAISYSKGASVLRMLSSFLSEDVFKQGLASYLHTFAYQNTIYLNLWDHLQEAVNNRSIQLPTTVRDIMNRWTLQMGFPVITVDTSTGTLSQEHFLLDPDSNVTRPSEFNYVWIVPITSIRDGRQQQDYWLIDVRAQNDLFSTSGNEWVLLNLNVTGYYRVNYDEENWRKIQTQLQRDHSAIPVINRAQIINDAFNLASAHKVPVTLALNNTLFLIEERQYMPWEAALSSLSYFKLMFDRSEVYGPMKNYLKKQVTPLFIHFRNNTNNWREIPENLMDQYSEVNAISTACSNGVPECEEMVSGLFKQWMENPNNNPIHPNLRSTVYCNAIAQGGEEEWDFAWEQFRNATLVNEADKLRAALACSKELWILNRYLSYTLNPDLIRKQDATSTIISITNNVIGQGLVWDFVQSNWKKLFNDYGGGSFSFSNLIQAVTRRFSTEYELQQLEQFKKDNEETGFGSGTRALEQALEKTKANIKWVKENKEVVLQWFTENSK
Experiment: Inhibition of alanyl aminopeptidase enzymatic activity, fluorogenic substrate (Ala)2-rhodamine 110
Type: biochemical
Details: Table 9, unstarred values; read-out: IC50APN
observed.property: pIC50
Answers are plain numbers, as −log10 of the molar value.

>  <compound>
CCCOC(=O)c1cc(-c2ccc(/C=C3/C(=O)N(CC(C)O)C(=O)C(C#N)=C3C)o2)ccc1Cl (centres unmarked) [A9.083]

>  <target.of.assay>
UniProt P15144

>  <pIC50>
4.49

$$$$

// each compound listed below needs its pIC50
1. COC(=O)c1cc(-c2ccc(/C=C3\C(=O)N(CCCO)C(=O)C(C#N)=C3C)o2)ccc1Cl [A9.036]
2. Clc1ccc(-n2cc3c(-c4ccco4)nnc(-c4nc5ccccc5s4)c3n2)cc1 [A9.034]
3. O=C(N/N=C\c1ccco1)c1cnccn1 [A9.079]

4.82
4.84
4.52

Give me pIC50 for each of these compounds, listed below.
1. O=C(O)C1N=NC(c2ccc(F)cc2)=CN1O (centres unmarked) [A9.038]
2. CCCOC(=O)c1cc(-c2ccc(/C=C3\C(=O)NC(=O)C(C#N)=C3C)o2)ccc1Cl [A9.091]
3. CCc1c(C)nc2ccccc2c1SCC(=O)O [A9.112]
4. NC(=O)C1CCN(C(=O)/C(=C/c2ccco2)NC(=O)c2ccccc2)CC1 [A9.081]
5. COc1ccc(C[C@@H](N)C(=O)N[C@H]2[C@H](O)[C@H](n3cnc4c(N(C)C)ncnc43)O[C@@H]2CO)cc1 [A9.050]
6. CCOC(=O)C1CCN(C(=O)/C(=C/c2ccco2)NC(=O)c2ccc(C)c(C)c2)CC1 [A9.089]
7. O=C(NC(Sc1ccncn1)C(=O)c1ccccc1)c1ccccc1 (centres unmarked) [A9.068]
8. CN(C)CCCN1CCN(c2nc(N(C)CC(=O)O)c3ncn(Cc4ccc(C(F)(F)F)cc4)c3n2)CC1 [A9.060]

4.77
4.43
4.11
4.52
4.68
4.46
4.57
4.64
